Biological target: T1, HLA-B*07:02 (human)
T1 construct: Peptide-receptive MHC monomer made by UV cleavage of a UV-sensitive peptide
Test: UV-ligand exchange, anti-b2m ELISA; exchange yield grade (+ >10%, ++ >20%, +++ >50, ++++ >75%)

binder | peptide exchange yield
HDPDVGSNSL | 20 to 50%
SPIKVPLLL | 50 to 75%
VPERGEPEL | 20 to 50%
HPIETLVDIF | 20 to 50%
FPAHPSLLL | 20 to 50%
HPQVVILSL | 50 to 75%
